Where do these numbers come from? They come from ChEMBL document CHEMBL1131181.

- Tested on: Human immunodeficiency virus 2
- Method Summary: In vitro antiviral activity against HIV-2 (ROD) in CEM (human leukemia) cells.
- Type: functional, organism-based
- Experimental Conditions: Human immunodeficiency virus 2, CCRF-CEM
pEC50: −log10 of the molar value.
Observable: pEC50

## Task # get_value(readout='pEC50', item= `CSc1ccc(NC(=O)N[C@@H]2O[C@H](CO[Si](C)(C)C(C)(C)C)[C@@]3(OS(=O)(=O)C=C3N)[C@H]2O[Si](C)(C)C(C)(C)C)cc1` )
## Result < 5.00

## Task Another molecule to look at: `CC(C)(C)[Si](C)(C)OC[C@H]1O[C@@H](N)[C@H](O[Si](C)(C)C(C)(C)C)[C@]12OS(=O)(=O)C=C2N`
## Result < 5.00

## Task // next record `CC(C)(C)[Si](C)(C)OC[C@H]1O[C@@H](OCc2ccccc2)[C@H](O[Si](C)(C)C(C)(C)C)[C@@]12OS(=O)(=O)C=C2N`
## Result < 5.19

## Task Cool, now `CC(=O)N[C@@H]1O[C@H](CO[Si](C)(C)C(C)(C)C)[C@@]2(OS(=O)(=O)C=C2N)[C@H]1O[Si](C)(C)C(C)(C)C`
## Result < 5.10

---

Reported EC50 values for the following compounds.
- Tested on: Human immunodeficiency virus 2
- Method Summary: In vitro antiviral activity against HIV-2 (ROD) in CEM (human leukemia) cells.
- Format: functional, organism-based
- Experimental Conditions: Human immunodeficiency virus 2, CCRF-CEM

Answered examples (2):
INSERT INTO results (input_smiles, result) VALUES
  ('CC(C)(C)[Si](C)(C)OC[C@H]1O[C@@H](NC(N)=O)[C@H](O[Si](C)(C)C(C)(C)C)[C@]12OS(=O)(=O)C=C2N', '> 50 µM'),
  ('CC(C)(C)[Si](C)(C)OC[C@H]1O[C@@H](NC(=O)Nc2ccccc2)[C@H](O[Si](C)(C)C(C)(C)C)[C@]12OS(=O)(=O)C=C2N', '> 10 µM');

## Task Need EC50, item `CC(C)(C)[Si](C)(C)OC[C@H]1O[C@@H](OCc2ccccc2)[C@H](O[Si](C)(C)C(C)(C)C)[C@]12OS(=O)(=O)C=C2N`
## Result > 6.4 µM

## Task Ok, now `COC(=O)c1ccccc1NC(=O)N[C@H]1O[C@H](CO[Si](C)(C)C(C)(C)C)[C@@]2(OS(=O)(=O)C=C2N)[C@H]1O[Si](C)(C)C(C)(C)C`
## Result > 10 µM

## Task # repeat for `CC(=O)N[C@H]1O[C@H](CO[Si](C)(C)C(C)(C)C)[C@@]2(OS(=O)(=O)C=C2N)[C@H]1O[Si](C)(C)C(C)(C)C`
## Result > 8 µM

## Task Queued: `CC(C)(C)[Si](C)(C)OC[C@H]1O[C@@H](N=[N+]=[N-])[C@H](O[Si](C)(C)C(C)(C)C)[C@]12OS(=O)(=O)C=C2N`
## Result > 200 µM

---

Below is a list of entries, each paired with its recorded EC50 value.
- Tested on: Human immunodeficiency virus 2
- Method Summary: In vitro antiviral activity against HIV-2 (ROD) in CEM (human leukemia) cells.
- Format: functional, organism-based
- Experimental Conditions: Human immunodeficiency virus 2, CCRF-CEM

Below: 2 molecules and their reported EC50.
INSERT INTO measurements (molecule, observable, result) VALUES
  ('C=C(C)C(=O)NC(=O)N[C@@H]1O[C@H](CO[Si](C)(C)C(C)(C)C)[C@@]2(OS(=O)(=O)C=C2N)[C@H]1O[Si](C)(C)C(C)(C)C', 'EC50', '> 6.5 µM'),
  ('CC(C)(C)[Si](C)(C)OC[C@H]1O[C@H](NC(=O)Nc2ccccc2)[C@H](O[Si](C)(C)C(C)(C)C)[C@]12OS(=O)(=O)C=C2N', 'EC50', '> 2 µM');

## Task For the molecule `CCNC(=O)N[C@@H]1O[C@H](CO[Si](C)(C)C(C)(C)C)[C@@]2(OS(=O)(=O)C=C2N)[C@H]1O[Si](C)(C)C(C)(C)C.CCNC(=O)N[C@H]1O[C@H](CO[Si](C)(C)C(C)(C)C)[C@@]2(OS(=O)(=O)C=C2N)[C@H]1O[Si](C)(C)C(C)(C)C` , what EC50 is on record?
## Result > 10 µM

## Task Cc1cn([C@@H]2O[C@H](CO[Si](C)(C)C(C)(C)C)C3(OS(=O)(=O)C=C3N)[C@H]2O[Si](C)(C)C(C)(C)C)c(=O)[nH]c1=O (some centres not stated) , same question.
## Result > 20 µM

## Task Note, next up: `CC(C)(C)[Si](C)(C)OC[C@H]1O[C@H](NC(=O)NC(=O)c2ccccc2)[C@H](O[Si](C)(C)C(C)(C)C)[C@]12OS(=O)(=O)C=C2N`
## Result > 250 µM
